Every entry's value here was drawn from ChEMBL document CHEMBL1125814.

Test: Ratio of relative Vmax to that of Km values.
Type: ADME
MEASUREMENT LABEL: Ratio

{"COMPOUND": "CN(Cc1cnc2nc(N)nc(N)c2n1)c1ccc(C(=O)N[C@@H](CCC(=O)O)C(=O)O)cc1 [METHOTREXATE]", "ENDPOINT RESULT": 0.9}
{"COMPOUND": "NC(=O)c1nc(CNc2ccc(C(=O)NC(CCC(=O)O)C(=O)O)cc2)cnc1N (stereo unspecified)", "ENDPOINT RESULT": 1.52}
{"COMPOUND": "Nc1nc2ncc(CNc3ccc(C(=O)N[C@@H](CCC(=O)O)C(=O)O)cc3)nc2c(=O)[nH]1", "ENDPOINT RESULT": 1}
{"COMPOUND": "Nc1nc(N)c2nc(CNc3ccc(C(=O)N[C@@H](CCC(=O)O)C(=O)O)cc3)cnc2n1", "ENDPOINT RESULT": 10.1}

(a) N#Cc1nc(CNc2ccc(C(=O)NC(CCC(=O)O)C(=O)O)cc2)cnc1N (stereo unspecified)
(b) NC(=O)c1nc(CN(C=O)c2ccc(C(=O)NC(CCC(=O)O)C(=O)O)cc2)cnc1N (stereo unspecified)
(Q) I'm curious, which of these has a smaller Ratio number: a or b ? Output the label that corresponds to your choice.
(A) a
(a: 0.7, b: 2.6)

----------
Assay: Relative maximal velocity (Vmax) as folylpolyglutamate synthetase substrate of the compound.
Type: ADME
MEASUREMENT LABEL: Relative Vmax

{"COMPOUND": "Nc1nc2ncc(CNc3ccc(C(=O)N[C@@H](CCC(=O)O)C(=O)O)cc3)nc2c(=O)[nH]1 [FOLIC ACID]", "Relative Vmax": 1}
{"COMPOUND": "N#Cc1nc(CNc2ccc(C(=O)NC(CCC(=O)O)C(=O)O)cc2)cnc1N (stereo unspecified)", "Relative Vmax": 1.06}
{"COMPOUND": "Nc1nc(N)c2nc(CNc3ccc(C(=O)N[C@@H](CCC(=O)O)C(=O)O)cc3)cnc2n1 [AMINOPTERIN]", "Relative Vmax": 1.59}
{"COMPOUND": "NC(=O)c1nc(CNc2ccc(C(=O)NC(CCC(=O)O)C(=O)O)cc2)cnc1N (stereo unspecified)", "Relative Vmax": 0.99}

(I) CN(Cc1cnc2nc(N)nc(N)c2n1)c1ccc(C(=O)N[C@@H](CCC(=O)O)C(=O)O)cc1 [METHOTREXATE]
(II) NC(=O)c1nc(CN(C=O)c2ccc(C(=O)NC(CCC(=O)O)C(=O)O)cc2)cnc1N (stereo unspecified)
(Q) I'm curious, which of these has a smaller Relative Vmax number: I or II ? Output the label that corresponds to your choice.
(A) I
